System: SW-620 colon
Assay: NCI tumour cell line growth inhibition, 48 h
quantity: TGI

INSERT INTO measurements (compound, quantity, meas_value) VALUES
  ('COc1cccc(/C=C/C(=O)c2cccc(Nc3nc(Nc4ccccc4)nc(Nc4ccccc4)n3)c2)c1', 'TGI', '> 48.3 µM');

Now, please, on to the next compound.
Entry N#Cc1c(-c2ccccc2)/c(=C\Nc2ccc(Cl)cc2)c(=O)n2c1nc1ccccc12 has what TGI? > 100 µM

---

Tested on: TK-10 renal
Assay: NCI tumour cell line growth inhibition, 48 h
quantity: TGI

INSERT INTO measurements (compound, meas_value) VALUES
  ('CC(C)(C)C[C@H]1NC(C(=O)NCC[C@H](O)CO)[C@H](c2cccc(Cl)c2)[C@@]12C(=O)Nc1cc(Cl)c(F)cc12 (stereo not given in full)', '39.5 µM'),
  ('COc1c(CCC[P+](c2ccccc2)(c2ccccc2)c2ccccc2)cc2c(c1OC)OCO2', '34.7 µM'),
  ('C/C(=N/NC(N)=S)c1ccc2ccccc2c1', '> 100 µM'),
  ('COc1cc(C2c3cc4c(cc3OC(NN=C(C)C)C2C)OCO4)cc(OC)c1O (stereo not given)', '> 100 µM');

Entry CCN(CC)S(=O)(=O)c1ccc(OC)c(Nc2ncc(-c3ccccc3)o2)c1 has what TGI? > 25 µM
